Every entry's value here was drawn from PubChem BioAssay (NCI).

tested on: M14 melanoma; test: NCI tumour cell line growth inhibition, 48 h
Provide the recorded TGI for the entries that follow.

Worked examples, 4 compounds total:
                                   compound  parameter  value_measured
0  CCOC(=O)[C@]12C(=C(c3ccccc3)O[C@H]3C=CCC[C@H]31)C(=O)C(=O)N2c1ccccc1        TGI        > 100 µM
1  CCOc1ccc(NC(=O)C2=C(C)NC(C)=C(C(=O)Nc3ccc(OCC)cc3)C2c2ccc(O)c(OC)c2)cc1        TGI        > 100 µM
2  CCOC(=O)N1C2C=C(C)C(ON2C(=O)c2ccccc2)C2C(C)C(=O)N21 (stereo unspecified)        TGI        > 100 µM
3  COC(c1cccc(C(O)(C(F)(F)F)C(F)(F)F)c1)(C(F)(F)F)C(F)(F)F        TGI           34 µM

Would you mind giving TGI for every compound in the list below?
1. COC(=O)C1=C(C)NC(C)=C(C(=O)OC)C1/C=C(\Cl)c1ccc(Cl)c(Cl)c1
2. O=C(Nc1ccccc1)c1nn(-c2cc(S(=O)(=O)O)c([N+](=O)[O-])cc2Cl)[n+](-c2cc(S(=O)(=O)[O-])c([N+](=O)[O-])cc2Cl)n1
3. CC/C(=C(/c1ccc(OCCN(C)C)cc1)c1ccc(OC(=O)CCC(=O)c2c(C)[nH]c(/C=C3\N=C(c4ccc[nH]4)C=C3OC)c2C)cc1)c1ccccc1
4. Cc1ccccc1C1=[N+]([O-])c2ccccc2C1=O

**Result**
30.2 µM
> 100 µM
4.92 µM
32.4 µM
